Cited source for all entries: patent US20080287490A1

Reported IC50 is given for each of the following molecules.
- System: nAChR subtypes mediating nicotine-evoked [^3H]-dopamine overflow
- experimental_context: read-out: Nicotine-evoked [^3H]DA Overflow IC50; Table 11
Please state the figure in nM; there is no need to write the unit.

Reference set (3 entries):
>>> print(df.to_string())
                            chemical_smiles  assay_metric  recorded_value
0  c1ccc2c(c1)ccc[n+]2CCCCCCCCCCCC[n+]1cccc2ccccc21          IC50              21
1  CN1CCC[C@H]1c1ccc[n+](CCCCCCCCCCCC[n+]2cccc([C@@H]3CCCN3C)c2)c1          IC50              40
2  [Br-].[Br-].c1cc[n+](CCCCCCCCCCCC[n+]2ccccc2)cc1          IC50            1000

Measured IC50, c1ccc2c[n+](CCCCCCCCCCCC[n+]3ccc4ccccc4c3)ccc2c1 : 7

* * *

- study_target: α7-type neuronal nicotinic acetylcholine receptors (Rattus norvegicus, UniProt Q05941)
- Construct: Rat brain was dissected into the whole brain tissue without cortex, striatum and cerebellum; from tissue; host or cells: rat brain (without cortex, striatum, cerebellum) membranes
- Sequence (Q05941 23-502): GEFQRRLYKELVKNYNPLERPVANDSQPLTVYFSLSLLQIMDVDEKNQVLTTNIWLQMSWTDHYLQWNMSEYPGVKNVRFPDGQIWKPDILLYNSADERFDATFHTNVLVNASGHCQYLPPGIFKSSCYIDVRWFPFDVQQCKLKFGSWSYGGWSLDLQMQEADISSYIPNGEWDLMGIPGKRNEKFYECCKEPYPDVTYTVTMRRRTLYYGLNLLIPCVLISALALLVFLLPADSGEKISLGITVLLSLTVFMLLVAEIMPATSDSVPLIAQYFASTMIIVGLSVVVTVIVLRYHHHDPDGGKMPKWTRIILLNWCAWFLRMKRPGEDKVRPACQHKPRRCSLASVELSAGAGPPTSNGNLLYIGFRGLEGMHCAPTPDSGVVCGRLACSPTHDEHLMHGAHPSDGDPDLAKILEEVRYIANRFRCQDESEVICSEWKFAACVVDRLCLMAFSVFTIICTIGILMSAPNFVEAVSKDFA
- assay_comment: biochemical
- experimental_context: rat brain membranes, 2.5 nM [^3H]-MLA; read-out: Ki, [^3H]MLA binding
Reported Ki is given for each of the following compounds.
Please state the figure in µM; there is no need to write the unit.

Reference set (6 entries):
                                   compound  assay_metric  recorded_value
0  c1ccc2c[n+](CCCCCCCC[n+]3ccc4ccccc4c3)ccc2c1 [bIQOI]            Ki            8.55
1  c1ccc2c(c1)ccc[n+]2CCCCCCCCCC[n+]1cccc2ccccc21 [bQDI]            Ki            7.32
2  c1ccc2c[n+](CCCCCCCCCC[n+]3ccc4ccccc4c3)ccc2c1 [bIQDI]            Ki             5.5
3  [Br-].[Br-].c1cc[n+](CCCCCCCCCCCC[n+]2ccccc2)cc1 [bPDDB]            Ki            35.6
4  c1ccc2c[n+](CCCCCCCCC[n+]3ccc4ccccc4c3)ccc2c1 [bIQNB]            Ki            13.1
5  c1ccc2c[n+](CCCCCCCCCCCC[n+]3ccc4ccccc4c3)ccc2c1 [bIQDDB]            Ki            12.3

Measured Ki, c1ccc2c(c1)ccc[n+]2CCCCCCCCCCC[n+]1cccc2ccccc21 [bQUB] : 2.44

Measured Ki, c1ccc2c[n+](CCCCCCCCCCC[n+]3ccc4ccccc4c3)ccc2c1 [bIQUB] : 24.1

Measured Ki, c1ccc2c(c1)ccc[n+]2CCCCCCCCC[n+]1cccc2ccccc21 [bQNB] : 3.4

Measured Ki, c1ccc2c(c1)ccc[n+]2CCCCCCCCCCCC[n+]1cccc2ccccc21 [bQDDB] : 1.57

Measured Ki, c1ccc2c(c1)ccc[n+]2CCCCCCCC[n+]1cccc2ccccc21 [bQOI] : 2.01

* * *

- study_target: Rat Striatal Nicotinic Acetylcholine Receptors ([^3H]nicotine binding sites) (Rattus norvegicus, UniProt P09483+P12390)
- Construct: Striata from two rats were dissected, pooled, and homogenized; from tissue; host or cells: rat striatum membranes
- Sequence (P09483 31-630): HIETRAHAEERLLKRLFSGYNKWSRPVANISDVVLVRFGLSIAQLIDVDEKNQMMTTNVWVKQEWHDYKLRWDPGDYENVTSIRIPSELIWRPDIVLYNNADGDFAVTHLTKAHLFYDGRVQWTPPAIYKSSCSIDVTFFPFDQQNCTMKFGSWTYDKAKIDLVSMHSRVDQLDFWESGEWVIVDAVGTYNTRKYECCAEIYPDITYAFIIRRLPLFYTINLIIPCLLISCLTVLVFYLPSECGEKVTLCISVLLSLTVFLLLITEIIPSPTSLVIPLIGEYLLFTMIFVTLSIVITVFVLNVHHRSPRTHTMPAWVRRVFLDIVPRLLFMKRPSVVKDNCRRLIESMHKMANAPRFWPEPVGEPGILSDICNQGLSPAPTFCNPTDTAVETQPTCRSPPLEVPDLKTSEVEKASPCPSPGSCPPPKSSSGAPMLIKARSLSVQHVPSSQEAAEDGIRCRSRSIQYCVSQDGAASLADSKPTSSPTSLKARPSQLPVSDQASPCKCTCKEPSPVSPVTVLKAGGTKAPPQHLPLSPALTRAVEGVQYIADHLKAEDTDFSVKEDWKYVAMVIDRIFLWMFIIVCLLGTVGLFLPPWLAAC
- Sequence (P12390 25-500): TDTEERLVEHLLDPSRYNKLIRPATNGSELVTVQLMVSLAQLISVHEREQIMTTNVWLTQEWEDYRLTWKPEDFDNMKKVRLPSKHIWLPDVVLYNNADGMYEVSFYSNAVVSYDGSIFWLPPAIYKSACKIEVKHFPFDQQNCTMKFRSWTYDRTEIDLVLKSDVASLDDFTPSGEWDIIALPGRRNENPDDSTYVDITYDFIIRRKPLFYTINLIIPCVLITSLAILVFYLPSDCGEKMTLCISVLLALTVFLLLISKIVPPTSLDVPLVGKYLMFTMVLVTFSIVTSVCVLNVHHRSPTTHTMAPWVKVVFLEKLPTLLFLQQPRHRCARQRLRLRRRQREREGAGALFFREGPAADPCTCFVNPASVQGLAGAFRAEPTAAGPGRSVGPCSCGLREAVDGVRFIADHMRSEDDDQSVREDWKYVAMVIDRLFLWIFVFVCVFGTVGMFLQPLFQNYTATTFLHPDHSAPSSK
- assay_comment: biochemical
- experimental_context: rat striatal membranes, 3 nM [^3H]-nicotine; read-out: Ki, specific binding of [^3H]-nicotine
assay_metric: Ki (µM)
Please state the figure in µM; there is no need to write the unit.

In [3]: df
Out[3]:
                                   compound  result_units  recorded_value
0       c1cc[n+](CCCCCCCCCCC[n+]2ccccc2)cc1            µM            14.4
1  CN1CCCC1c1ccc[n+](CCCCCCCCCC[n+]2cccc(C3CCCN3C)c2)c1 (stereo not drawn)            µM            0.28
2            c1cc[n+](CCCCCC[n+]2ccccc2)cc1            µM            97.8
3  c1ccc2c[n+](CCCCCCCCCCC[n+]3ccc4ccccc4c3)ccc2c1            µM            9.02
4  CN1CCC[C@H]1c1ccc[n+](CCCCCCCCC[n+]2cccc([C@@H]3CCCN3C)c2)c1            µM            4.31
5  CN1CCC[C@H]1c1ccc[n+](CCCCCCCC[n+]2cccc([C@@H]3CCCN3C)c2)c1            µM             1.5

Measured Ki, c1ccc2c[n+](CCCCCC[n+]3ccc4ccccc4c3)ccc2c1 : 17.9

Measured Ki, CCCCCCCCCC[n+]1cccc(C2CCCN2C)c1 (stereo not drawn) : 0.11
